Read-out: MicroRNA 122 (MIR122), gene 406906
Test: LTEA_HepaRG_MIR122: Life Technologies and Expression Analysis (LTEA) Assay for MicroRNA 122 (MIR122) using HepaRG (AID 2283516); note: the transcript read is the microRNA miR-122
Details: mRNA level, 48 h; actives raise or lower the signal
Procedure: LTEA_HepaRG is a cell based, multiplexed-readout assay that uses HepaRG, a human liver cell line, with measurements taken at 48 hours after chemical dosing on a 96-well plate.LTEA_HepaRG_MIR122 is one of 102 assay component(s) measured in the LTEA HepaRG cell culture assay. It is a marker of MicroRNA.Data from the assay component LTEA_HepaRG_MIR122 was analyzed into 1 endpoint. […]
The source made the active and inactive calls. Rule for the calls: active = hit-call score of the fitted dose curve at least 0.9, where 1 is the maximum; inactive = score below 0.9.
Outcomes: active, inactive

| molecule | className |
| --- | --- |
| CN(C)C(=O)Nc1ccc(Cl)cc1 | inactive |
| CC(C)(C)C(O)(CCc1ccc(Cl)cc1)Cn1cncn1 (centres undefined) | active |
| Nc1cc(Cl)cc(C(=O)O)c1Cl | inactive |
| Oc1ccccc1Cl | inactive |
| O=C(O)C1C2CCC(O2)C1C(=O)O (centres undefined) | active |
| Brc1ccc(Oc2ccccc2)cc1 | inactive |
| CCCCCOC(=O)c1ccccc1C(=O)OCCCCC | inactive |
| CCN(CC)CCO | inactive |
| CCCCCCCCOC(=O)c1ccc(C(=O)OCCCCCCCC)c(C(=O)OCCCCCCCC)c1 | inactive |
| CCOc1cccc(C2(N3CCN(c4ccccc4)CC3)CCC(C)CC2)c1 (centres undefined) | inactive |
| CCCSC(=O)N(CCC)CCC | inactive |
| CC(C)(C)OOC(C)(C)CCC(C)(C)OOC(C)(C)C | inactive |
| O=Cc1ccco1 | inactive |
| Clc1ccc(C(c2ccc(Cl)cc2)C(Cl)Cl)cc1 | inactive |

====

test: ATG_TGFb_CIS: Attagene CIS-FACTORIAL HepG2 Assay for human Transforming Growth Factor (TGF) (AID 2282967); details: HepG2 Attagene CIS TGFb reporter, mRNA transcription; actives raise or lower the signal
The source made the active and inactive calls. The calls were made as follows: active = hit-call score of the fitted dose curve at least 0.9, where 1 is the maximum; inactive = score below 0.9.
Outcomes: active, inactive

| molecule | className |
| --- | --- |
| O=P(OCCCl)(OCCCl)OCCCl | inactive |
| [As]#[In] | inactive |
| CCCCOC(=O)c1ccccc1C(=O)OCc1ccccc1 | inactive |
| CC(C)COC(=O)c1ccccc1C(=O)OCC(C)C | inactive |
| COC(=O)c1ccccc1N | inactive |
| Cc1cc(N=Nc2ccccc2C)ccc1N | inactive |
| Clc1ccc(C(c2ccc(Cl)cc2)C(Cl)Cl)cc1 | inactive |
| CCCCCCCCCCCCCN1CC(C)OC(C)C1 (configuration not stated) | inactive |
| CC(C)N(Cc1ccccc1)C(=O)C(C)(C)C | inactive |
| CC(C)(C)OOC(C)(C)CCC(C)(C)OOC(C)(C)C | inactive |
| C[N+](C)(C)CC1CO1 (configuration not stated) | inactive |
| ClCCOCCCl | inactive |
| [Cl-].[Cl-].[Hg+2] | inactive |
| c1ccc(C2CO2)cc1 (configuration not stated) | inactive |
| COC(=O)Nc1nc2ccccc2[nH]1 | inactive |
| O=Cc1ccco1 | inactive |
| O=C(O)C1C2CCC(O2)C1C(=O)O (configuration not stated) | inactive |
| OCCCl | inactive |
| CCCCCCCCOC(=O)c1ccc(C(=O)OCCCCCCCC)c(C(=O)OCCCCCCCC)c1 | inactive |
| O=[N+]([O-])C(Br)(CO)CO | active |
| CCC(C)c1ccc(O)cc1 (configuration not stated) | inactive |
| CCC[CH2][Sn]([Cl])([CH2]CCC)[CH2]CCC | inactive |
| CCCSC(=O)N(CCC)CCC | inactive |
| Clc1ccccc1Cl | inactive |
| Clc1ccc(Cl)c(Cl)c1 | inactive |
| CC(C)(C)OOC(=O)c1ccccc1 | inactive |
| O=[N+]([O-])c1ccc(Oc2ccc(Cl)cc2Cl)cc1 | active |
| CC(C)(C)C(O)(CCc1ccc(Cl)cc1)Cn1cncn1 (configuration not stated) | inactive |
| Nc1ccc(Cc2ccc(N)cc2)cc1 | inactive |
| OCCOCCO | inactive |
| CC(O)CCO (configuration not stated) | inactive |
| CN(C)C(=O)Nc1ccc(Cl)cc1 | inactive |

====

Assay: CCTE_Mundy_HCI_iCellGluta_NOG_NeuriteCount: CCTE's Neurite Outgrowth Assay in iCellGluta cells for Neurite Count, Mundy Lab (AID 2284342);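 note: chemical exposure about 48 hours starting 2 hours after plating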
Experimental: CCTE_Mundy_HCI_iCellGluta_NOG is a multiplexed, cell-based-readout assay that uses iCell GlutaNeurons from FUJIFILM Cellular Dynamics, Inc. (FCDI), human glutamatergic enriched neurons derived from induced pluripotent stem (iPS) cells, with measurements taken at 50.33 hours after chemical dosing in a microplate: 96-well plate.CCTE_Mundy_HCI_iCellGluta_NOG_NeuriteCount is one of four components of the CCTE_Mundy_HCI_iCellGluta_NOG assay. […]
Records with an inconclusive call do not appear. Calls of active or inactive are those of the source. How the source made its calls: active means hit-call score of the fitted dose curve at least 0.9, where 1 is the maximum; inconclusive means response in the unintended direction; inactive means score below 0.9.
readoutType: AC50

| smilesInput | measurement |
| --- | --- |
| CNC(=O)Oc1cccc2c1OC(C)(C)C2 | inactive |
| COP(=S)(OC)SCN1C(=O)c2ccccc2C1=O | 83.8 µM (active) |
| CC(C)COC(=O)c1ccccc1C(=O)OCC(C)C | inactive |
| [O-][Cl+]O | inactive |

====

read-out: Matrix Metallopeptidase 9 (MMP9), MMP9 (gene 4318); experiment: BSK_KF3CT_MMP9: BioMAP Diversity Plus: KF3CT Assay for Matrix Metallopeptidase 9 (MMP9) Biomarker Activity (AID 2283074); conditions: primary human keratinocytes with fibroblasts; actives raise or lower the signal
The source made the active and inactive calls. The calls were made as follows: active = hit-call score of the fitted dose curve at least 0.9, where 1 is the maximum; inactive = score below 0.9.
Outcomes: active, inactive

| molecule | className |
| --- | --- |
| O=C(O)C1C2CCC(O2)C1C(=O)O (centres undefined) | active |
| O=C(Nc1ccccc1)c1ccccc1I | inactive |
| Nc1cc(Cl)cc(C(=O)O)c1Cl | inactive |
| CN(C)[C@@H]1C(=O)C(C(N)=O)=C(O)[C@@]2(O)C(=O)C3=C(O)c4c(O)cccc4[C@@](C)(O)[C@H]3C[C@@H]12 | inactive |
| CCCCOC(=O)c1ccccc1C(=O)OCc1ccccc1 | inactive |
| OCCOCCO | inactive |
| Oc1ccccc1Cl | inactive |
| c1ccc2c(c1)-c1cccc3cccc-2c13 | active |
| CC(C)(O)c1cnn2c(-c3ccc(F)c(-c4c(F)cccc4C#N)c3)cnc2n1 | active |
| CC(O)CCO (centres undefined) | inactive |
| N#CC(Br)Br | inactive |
| C[N+](C)(C)CC1CO1 (centres undefined) | inactive |
| Cc1cc(N=Nc2ccccc2C)ccc1N | active |
| N#CC(Br)(Br)C(N)=O | inactive |

====

molecular target: human CYP2A6, CYP2A6 (gene 1548) (UniProt P11509); test: NVS_ADME_hCYP2A6: NovaScreen (NVS) CYP450-related Enzyme Activity (ADME) Assay for human CYP2A6 (AID 2283099)
Sequence (P11509 whole entry, looked up): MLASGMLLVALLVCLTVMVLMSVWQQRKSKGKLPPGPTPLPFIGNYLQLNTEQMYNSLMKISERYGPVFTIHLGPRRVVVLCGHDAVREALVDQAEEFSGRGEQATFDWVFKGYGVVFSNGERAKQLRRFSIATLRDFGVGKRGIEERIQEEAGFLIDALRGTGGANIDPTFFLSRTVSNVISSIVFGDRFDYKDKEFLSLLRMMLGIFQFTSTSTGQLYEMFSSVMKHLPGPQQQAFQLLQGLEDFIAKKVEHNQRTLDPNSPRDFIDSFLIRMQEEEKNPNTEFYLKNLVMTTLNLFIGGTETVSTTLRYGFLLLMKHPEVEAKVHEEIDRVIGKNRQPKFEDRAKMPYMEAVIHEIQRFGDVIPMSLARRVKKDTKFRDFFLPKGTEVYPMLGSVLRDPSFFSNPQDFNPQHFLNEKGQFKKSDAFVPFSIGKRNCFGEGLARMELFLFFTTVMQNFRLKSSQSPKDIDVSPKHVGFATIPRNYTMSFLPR
Inconclusive results are not listed. Calls of active or inactive are those of the source. How the source made its calls: active means hit-call score of the fitted dose curve at least 0.9, where 1 is the maximum; inconclusive means response in the unintended direction; inactive means score below 0.9.
Outcomes: active, inactive

| compound | className |
| --- | --- |
| O=C(N[C@H](c1ccccc1)[C@@H]1CN2CCC1CC2)c1c(Cl)ccc(C(F)(F)F)c1Cl | inactive |
| CCCCCCCCn1sccc1=O | active |
| O=[N+]([O-])C(Br)(CO)CO | inactive |
| C[N+](C)(C)CC1CO1 (stereo unspecified) | inactive |
| Clc1ccccc1Cl | inactive |
| CCOC(=O)[C@]1(c2ccccc2)Oc2ccccc2[C@@H]1N | inactive |

====

assay: ATG_TGFb_CIS: Attagene CIS-FACTORIAL HepG2 Assay for human Transforming Growth Factor (TGF) (AID 2282967); conditions: HepG2 Attagene CIS TGFb reporter, mRNA transcription; actives raise or lower the signal
Activity calls are given as the source filed them. How the source made its calls: active means hit-call score of the fitted dose curve at least 0.9, where 1 is the maximum; inactive means score below 0.9.
Outcomes: Y (active), N (inactive)

| smilesInput | className |
| --- | --- |
| CCC12COCN1COC2 | N |
| Clc1ccc(C(c2ccc(Cl)cc2)C(Cl)(Cl)Cl)cc1 | N |
| OCCCBr | N |
| c1ccc(N=Nc2ccccc2)cc1 | N |
| COc1cc(C=O)cc2c1[C@H](COC(N)=O)[C@]1(OC(C)=O)ON2C[C@H]2[C@@H]1N2C(C)=O | Y |
| Cc1cccc(N)c1N | N |
| C1=Cc2cccc3cccc1c23 | N |
| CCCCCOC(=O)c1ccccc1C(=O)OCCCCC | N |
| Cc1ccc([N+](=O)[O-])cc1 | N |
| CCN(CC)N=O | N |
| Nc1ccc(N=Nc2ccccc2)cc1 | N |

====

experiment: CCTE_Shafer_MEA_acute_firing_rate_mean: CCTE's Neural Acute Assay for Mean Firing Rate, Shafer Lab (AID 2284009);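 note: analyzed for loss of signal so actives lower firing rate relative to DMSO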
Calls of active or inactive are those of the source. Rule for the calls: active = hit-call score of the fitted dose curve at least 0.9, where 1 is the maximum; inactive = score below 0.9.
Outcomes: active, inactive

| compound | className |
| --- | --- |
| O=[N+]([O-])c1ccc(Oc2ccc(Cl)cc2Cl)cc1 | active |
| Clc1ccc(C(c2ccc(Cl)cc2)C(Cl)Cl)cc1 | active |
| CCC(C)c1ccc(O)cc1 (stereo not drawn) | active |
| CC(C)(OOC(C)(C)c1ccccc1)c1ccccc1 | inactive |
| CCCCCOC(=O)c1ccccc1C(=O)OCCCCC | active |
| c1ccc(N=Nc2ccccc2)cc1 | inactive |
| CCCCCCCCn1sccc1=O | inactive |
| Cc1ccc(N)c(N)c1 | inactive |
| Clc1ccc(C(c2ccc(Cl)cc2)C(Cl)(Cl)Cl)cc1 | inactive |
| CCN(CC)N=O | inactive |
| ClC1=C(Cl)[C@]2(Cl)[C@H]3[C@H]([C@@H]4C=C[C@H]3C4)[C@@]1(Cl)C2(Cl)Cl | inactive |
| N#CC(Br)Br | inactive |
| C[N+](C)(C)CC1CO1 (stereo not drawn) | inactive |
| ClC1=C(Cl)C2(Cl)C3C(Cl)C=CC3C1(Cl)C2(Cl)Cl (stereo not drawn) | active |
| O=C(N[C@H](c1ccccc1)[C@@H]1CN2CCC1CC2)c1c(Cl)ccc(C(F)(F)F)c1Cl | active |
| COC(=O)Nc1nc2ccccc2[nH]1 | inactive |
| CCCCOC(=O)c1ccccc1C(=O)OCc1ccccc1 | active |
| c1ccc(NNc2ccccc2)cc1 | inactive |

Each recorded value in this set is attributed to PubChem BioAssay (EPA / NIEHS).
